Where these numbers come from: patent US20250195685A1

- tgt: T1, human CD8αα homodimer, recombinant protein (Acro Biosystems) (human, UniProt P01732 22-182)
- T1 construct: also called CD8αα antigen; biotinylated CD8α recombinant protein (CDA-H82E3)
- protocol description: BLI kinetic rate analysis, Fab fragment (temperature not given)
Give True when the value for koff is at least 0.0001 s⁻¹. Give False when it is less.

Before answering, review these 3 worked examples.
{"binder": "CBD1623 Fab (VL D30S and VH N55A of CBD1033) (Fab, V domains shown, also called D30S and N55A) VH: QVQLVQSGAEVKKPGASVKVSCKASRYTFTDYNLHWVRQAPGQGLEWMGFIYPYAGGTGYAQKFQGRVTMTVDTSTSTAYMELSSLRSEDTAVYYCARDHRYNEGVSFDYWGQGTTVTVSS VL: DIQLTQSPSSLSASVGDRATITCRASESVSGFGNSFMNWYQQKPGKAPKLLIYLASNLESGVPSRFSGSGSGTDFTLTISSVQPEDFATYYCQQNNEDPYTFGQGTKLEIK", "answer label": "False"}
{"binder": "CBD1382 (Fab, V domains shown) VH: QVQLVQSGAEVKKPGASVKVSCKASRYTFTDYNLHWVRQAPGQGLEWMGFIYPYAGGTGYAQKFQGRVTMTVDTSTSTAYMELSSLRSEDTAVYYCARDHRYNEGVSFDYWGQGTTVTVSS VL: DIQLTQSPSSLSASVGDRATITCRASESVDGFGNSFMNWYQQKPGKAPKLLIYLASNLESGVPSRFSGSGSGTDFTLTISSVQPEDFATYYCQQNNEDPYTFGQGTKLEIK", "answer label": "False"}
{"binder": "CBD1443 Fab (VL D30E of CBD1033) (Fab, V domains shown) VH: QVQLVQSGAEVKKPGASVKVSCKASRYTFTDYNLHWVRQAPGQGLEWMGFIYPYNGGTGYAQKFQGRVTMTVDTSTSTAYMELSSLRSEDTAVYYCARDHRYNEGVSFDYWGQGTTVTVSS VL: DIQLTQSPSSLSASVGDRATITCRASESVEGFGNSFMNWYQQKPGKAPKLLIYLASNLESGVPSRFSGSGSGTDFTLTISSVQPEDFATYYCQQNNEDPYTFGQGTKLEIK", "answer label": "True"}

Now take the following binder into account.
**Query** Item CBD1381 (Fab, V domains shown) VH: QVQLVQSGAEVKKPGASVKVSCKASRYTFTDYNLHWVRQAPGQGLEWMGFIYPYQGGTGYAQKFQGRVTMTVDTSTSTAYMELSSLRSEDTAVYYCARDHRYNEGVSFDYWGQGTTVTVSS VL: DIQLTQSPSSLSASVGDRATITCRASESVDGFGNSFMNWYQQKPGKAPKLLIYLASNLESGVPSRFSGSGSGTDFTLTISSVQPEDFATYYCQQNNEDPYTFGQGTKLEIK with koff of 0.0001 s⁻¹ or above?
**Result** False
